System: LB831-BLC (Bladder Carcinoma);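 further: after 72 h of two-drug dosing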
Assay: Bliss excess, mean over the matrix (fraction); higher = more synergy
Measured Bliss excess by item
The response must contain the number and no unit.

>>> result("O=C(c1cc(Cc2n[nH]c(=O)c3ccccc23)ccc1F)N1CCN(C(=O)C2CC2)CC1 [Olaparib] + CN(CC[C@H](CSC1=CC=CC=C1)NC2=C(C=C(C=C2)S(=O)(=O)NC(=O)C3=CC=C(C=C3)N4CCC(CC4)[C@H](C5=CC=CC=C5C6=CC=C(C=C6)Cl)O)S(=O)(=O)C(F)(F)F)CCO [AZD4320] (first compound max 10 µM, 7x7, partner max 1 µM)")
-0.0076
>>> result("COc1cccc(OCCCN)c1-c1cc(Nc2cnc(C#N)cn2)n[nH]1 [Prexasertib] + C=CCn1c(=O)c2cnc(Nc3ccc(N4CCN(C)CC4)cc3)nc2n1-c1cccc(C(C)(C)O)n1 [AZD1775] (first compound max 1 µM, partner max 1 µM)")
0.168

# ---- query compound ----
Tell me measured Bliss excess for COc1cc2ncnc(Nc3ccc(F)c(Cl)c3)c2cc1OCCCN1CCOCC1 [Gefitinib] + CC(C)n1c(=O)n(C)c2cnc3cc(F)c(-c4ccc(OCCCN5CCCCC5)nc4)cc3c21 [AZD1390] (first compound max 10 µM, 7x7, partner max 0.3 µM) please.
-0.0482

* * *

Test system: LNCaP-Clone-FGC (Prostate Carcinoma)
Test: combination Emax (second highest fraction inhibited in the dose matrix, 72 h); higher = more inhibition; extreme values may be limits of the assay
READOUT TYPE: combination Emax
Output spec: single numeric token, no unit.

Worked examples follow.
>>> result("COc1cc2ncnc(Nc3ccc(F)c(Cl)c3)c2cc1OCCCN1CCOCC1 [Gefitinib] + CC(C)n1c(=O)n(C)c2cnc3cc(F)c(-c4ccc(OCCCN5CCCCC5)nc4)cc3c21 [AZD1390] (first compound max 10 µM, 7x7, partner max 0.3 µM)")
0.089
>>> result("CC(=O)c1c(C)c2cnc(Nc3ccc(N4CCNCC4)cn3)nc2n(C2CCCC2)c1=O [Palbociclib] + Cc1c2c(nn1C)CSCc1cc(n(C)n1)CSc1cc(c3ccccc3c1)OCCCc1c(C(=O)O)n(C)c3c-2c(Cl)ccc13 [AZD5991] (first compound max 10 µM, 7x7, partner max 1 µM)")
0.5

The record that follows has no combination Emax shown yet.
Kindly indicate its recorded combination Emax. Item: CC1(C)CCC(CN2CCN(c3ccc(C(=O)NS(=O)(=O)c4ccc(NCC5CCOCC5)c([N+](=O)[O-])c4)c(Oc4cnc5[nH]ccc5c4)c3)CC2)=C(c2ccc(Cl)cc2)C1 [Venetoclax] + C1CN(CCC1(C(=O)N[C@@H](CCO)C2=CC=C(C=C2)Cl)N)C3=NC=NC4=C3C=CN4 [Capivasertib] (first compound max 1 µM, 7x7, partner max 3 µM)
0.916

* * *

# Lookup of reported combination Emax keyed by entry
System: 42-MG-BA (Glioblastoma)
Test: combination Emax (second highest fraction inhibited in the dose matrix, 72 h); higher = more inhibition; extreme values may be limits of the assay
Reply: number alone, nothing else.

Examples with answers:
>>> result("NC1(C(=O)N[C@@H](CCO)c2ccc(Cl)cc2)CCN(c2ncnc3[nH]ccc23)CC1 [Capivasertib] + COc1nnc2ccc(N3CCC(c4ccc(OCCN5CCN(C)C(=O)[C@H]5C)cc4)CC3)nn12 [AZD5153] (first compound max 10 µM, 7x7, partner max 1 µM)")
0.813
>>> result("CC1(C)CCC(CN2CCN(c3ccc(C(=O)NS(=O)(=O)c4ccc(NCC5CCOCC5)c([N+](=O)[O-])c4)c(Oc4cnc5[nH]ccc5c4)c3)CC2)=C(c2ccc(Cl)cc2)C1 [Venetoclax] + Cc1cc2ncnn2cc1Nc1ncc2c(n1)n(C1CCOCC1)c(=O)n2C [AZD7648] (first compound max 1 µM, 7x7, partner max 10 µM)")
0.43
>>> result("Cc1c2c(nn1C)CSCc1cc(n(C)n1)CSc1cc(c3ccccc3c1)OCCCc1c(C(=O)O)n(C)c3c-2c(Cl)ccc13 [AZD5991] + C[C@@H](Nc1cc(F)cc(F)c1)c1cc(C(=O)N(C)C)cc2c(=O)cc(N3CCOCC3)oc12 [AZD8186] (first compound max 1 µM, 7x7, partner max 3 µM)")
0.963
>>> result("CC1(C)CCC(CN2CCN(c3ccc(C(=O)NS(=O)(=O)c4ccc(NCC5CCOCC5)c([N+](=O)[O-])c4)c(Oc4cnc5[nH]ccc5c4)c3)CC2)=C(c2ccc(Cl)cc2)C1 [Venetoclax] + CCN(CCO)CCCOc1ccc2c(Nc3cc(CC(=O)Nc4cccc(F)c4)[nH]n3)ncnc2c1 [AZD2811] (first compound max 1 µM, 7x7, partner max 1 µM)")
0.534

From here, focus on the item given below.
For the compound CC(=O)c1c(C)c2cnc(Nc3ccc(N4CCNCC4)cn3)nc2n(C2CCCC2)c1=O [Palbociclib] + Cn1cnc2c(F)c(Nc3ccc(Br)cc3Cl)c(C(=O)NOCCO)cc21 [Selumetinib] (first compound max 10 µM, 7x7, partner max 10 µM) , give its reported combination Emax.
0.232

The values you see were collected from the supplement of paper PMC11061612.
